# target system: rat serum albumin (rat, UniProt P02770 25-608)
# Sequence (P02770 25-608 limits assumed): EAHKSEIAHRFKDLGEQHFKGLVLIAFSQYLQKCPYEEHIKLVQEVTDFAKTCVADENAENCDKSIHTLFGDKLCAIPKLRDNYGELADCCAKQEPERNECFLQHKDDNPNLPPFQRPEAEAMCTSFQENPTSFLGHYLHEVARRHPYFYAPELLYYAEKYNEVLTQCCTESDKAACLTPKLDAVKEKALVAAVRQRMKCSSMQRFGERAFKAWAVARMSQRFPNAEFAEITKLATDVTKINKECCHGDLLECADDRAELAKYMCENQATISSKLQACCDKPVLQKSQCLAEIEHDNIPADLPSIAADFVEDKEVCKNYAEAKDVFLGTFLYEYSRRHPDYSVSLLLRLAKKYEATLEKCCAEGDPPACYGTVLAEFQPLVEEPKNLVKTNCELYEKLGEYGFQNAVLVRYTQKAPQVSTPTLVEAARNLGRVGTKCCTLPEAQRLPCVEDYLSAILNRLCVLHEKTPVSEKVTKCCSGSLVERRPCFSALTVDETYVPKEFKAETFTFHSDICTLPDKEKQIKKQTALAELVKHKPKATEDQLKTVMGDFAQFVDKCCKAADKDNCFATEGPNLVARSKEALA
# method notes: binding ELISA, coated albumin, pH 7.4
property measured: EC50 (nM)
Just the number in nM, nothing appended.

Query string: Name the reported EC50 value associated with the binder HSA-36 (designed binder) MIPRGLSEAKPATPEIQEIVDKVKPQLEEKTNETYGKLEAVQYKTQVLAGHYARYWPGSTNYYIKVRAGDNKYMHLKVFNGPWAQKSKVHQADRVLTGYQVDKNKDDELTGFHHHHHH
Result string: 9.73

Query string: What would you report for HSA-18 (designed binder, also called HSA-18 monomer) MIPRGLSEAKPATPEIQEIVDKVKPQLEEKTNETYGKLEAVQYKTQVLADWWQAKWPHSTNYYIKVRAGDNKYMHLKVFNGPYKVHQSSGGADRVLTGYQVDKNKDDELTGFHHHHHH ?
Result string: 89.4

Okay, next one:
Query string: Name the reported EC50 value associated with the binder HSA-20 (designed binder) MIPRGLSEAKPATPEIQEIVDKVKPQLEEKTNETYGKLEAVQYKTQVLAGYWAAKWPGSTNYYIKVRAGDNKYMHLKVFNGPFPNTSYDLQADRVLTGYQVDKNKDDELTGFHHHHHH
Result string: 16.1
